Data credit: ChEMBL document CHEMBL5726195

Kindly state pIC50 for each of the entries shown.
Biological target: Serine/threonine-protein kinase Chk1 (Homo sapiens)
Sequence (O14757 whole entry): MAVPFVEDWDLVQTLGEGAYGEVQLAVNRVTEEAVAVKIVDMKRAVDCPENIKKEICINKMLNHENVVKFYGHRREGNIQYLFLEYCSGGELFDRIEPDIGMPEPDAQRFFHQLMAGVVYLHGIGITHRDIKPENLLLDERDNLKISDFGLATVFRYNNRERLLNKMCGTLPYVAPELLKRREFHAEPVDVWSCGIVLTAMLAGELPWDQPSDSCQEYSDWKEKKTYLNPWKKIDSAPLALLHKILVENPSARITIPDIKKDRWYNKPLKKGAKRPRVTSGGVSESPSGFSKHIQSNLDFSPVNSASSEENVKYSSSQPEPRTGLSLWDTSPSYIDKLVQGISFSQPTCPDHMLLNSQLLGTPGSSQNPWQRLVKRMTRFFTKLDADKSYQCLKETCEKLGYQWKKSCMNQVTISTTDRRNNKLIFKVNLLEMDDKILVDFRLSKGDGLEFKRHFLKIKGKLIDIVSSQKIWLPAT
Assay: Kinase Inhibition Asssay: Reaction Buffer:Base Reaction buffer: 20 mM Hepes (pH 7.5), 10 mM MgCl2, 1 mM EGTA, 0.02% Brij35, 0.02 mg/ml BSA, 0.1 mM Na3VO4, 2 mM DTT, 1% DMSORequired cofactors are added individually to each kinase reactionReaction Procedure:(i) Prepare indicated substrate in freshly prepared Base Reaction Buffer(ii) Deliver any required cofactors to the substrate solution above(iii) Deliver indicated kinase into the substrate solution and gently mix(iv) Deliver compounds in DMSO into the kinase reaction mixture(v) Deliver 33P-ATP (specific activity 0.01 μCi/μl final) into the reaction mixture to initiate the reaction.(vi) Incubate kinase reaction for 120 minutes at room temperature(vii) Reactions are spotted onto P81 ion exchange paper (Whatman #3698-915)(viii) Wash filters extensively in 0.1% phosphoric acid.(ix) Dry filters and measure counts in scintillation counterKinase Information:CHK-1 Genbank Accession # AF016582Recombinant full length construct, N-terminal GST tagged, purified from insect cells.No special measures were taken to activate this kinase.Final concentration in assay=0.5 nMSubstrate: CHKtidePeptide sequence: [[…]]Final concentration in assay=20 μM
Numbers only, as −log10 of the molar value.

COc1cc(CCNC[C@H]2CCCNC2)c(Cl)cc1NC(=O)Nc1cnc(C#N)cn1 :: 10.22

// below: pIC50 requested for another molecule
Reported pIC50 ( COc1cc(CCNC[C@@H]2CCCNC2)c(Cl)cc1NC(=O)Nc1cnc(C#N)cn1 ) = 10.00
